target: hDGAT1 (Homo sapiens); construct: host or cells: Sf9 insect cells (baculovirus); microsomal preparation; test: In-vitro DGAT1 assay (hDGAT1 microsomes from Sf9 cells, 14C oleoyl CoA, triglyceride formation); type: biochemical; conditions: At 5 μM
recorded.endpoint: inhibition at 5 µM

Worked cases, inhibition at 5 µM given:
compound	test.system	recorded.endpoint	meas.value
Cc1cc(NC(=O)Nc2ccccc2F)ccc1-c1cc(C(=O)NC(C(=O)O)C(C)C)on1 (centres unmarked) [Example 136]	hDGAT1 (Homo sapiens)	inhibition at 5 µM	75 to 100%
COC(=O)C(NC(=O)c1cc(-c2ccc(NC(=O)Nc3ccccn3)cc2)no1)C(C)C (centres unmarked) [Example 279]	hDGAT1 (Homo sapiens)	inhibition at 5 µM	0 to 50%
C=C(NC(=O)c1cc(-c2ccc(NC(=O)Nc3ccccc3F)cc2)no1)C(=O)OC [Example 301]	hDGAT1 (Homo sapiens)	inhibition at 5 µM	50 to 75%
COC(=O)[C@@H](NC(=O)c1cc(-c2ccc(NC(=O)Nc3ccc(F)cc3F)cc2F)no1)C(C)C [Example 141]	hDGAT1 (Homo sapiens)	inhibition at 5 µM	0 to 50%
COC(=O)CCCNC(=O)c1cc(-c2ccc(NC(=O)Nc3ccccc3F)cc2)no1 [Example 253]	hDGAT1 (Homo sapiens)	inhibition at 5 µM	0 to 50%
CC(C)C(NC(=O)c1cc(-c2ccc(NC(=O)Nc3ccc(C(F)(F)F)cc3)cc2)no1)C(=O)O (centres unmarked) [Example 276]	hDGAT1 (Homo sapiens)	inhibition at 5 µM	75 to 100%
CC(C)[C@H](NC(=O)c1cc(-c2ccc(NC(=O)Nc3ccccc3F)cc2)no1)C(=O)OC(C)(C)C [Example 300]	hDGAT1 (Homo sapiens)	inhibition at 5 µM	50 to 75%

INPUT: Give its inhibition at 5 µM value. Item: COC(=O)[C@H](NC(=S)c1cc(-c2ccc(NC(=O)Nc3ccccc3F)cc2)no1)C(C)C [Example 222]
OUTPUT: 50 to 75%

###

# inhibition at 1 µM annotations
Molecular target: hDGAT1 (Homo sapiens)
Construct: host or cells: Sf9 insect cells (baculovirus); microsomal preparation
Sequence (O75907 1-488): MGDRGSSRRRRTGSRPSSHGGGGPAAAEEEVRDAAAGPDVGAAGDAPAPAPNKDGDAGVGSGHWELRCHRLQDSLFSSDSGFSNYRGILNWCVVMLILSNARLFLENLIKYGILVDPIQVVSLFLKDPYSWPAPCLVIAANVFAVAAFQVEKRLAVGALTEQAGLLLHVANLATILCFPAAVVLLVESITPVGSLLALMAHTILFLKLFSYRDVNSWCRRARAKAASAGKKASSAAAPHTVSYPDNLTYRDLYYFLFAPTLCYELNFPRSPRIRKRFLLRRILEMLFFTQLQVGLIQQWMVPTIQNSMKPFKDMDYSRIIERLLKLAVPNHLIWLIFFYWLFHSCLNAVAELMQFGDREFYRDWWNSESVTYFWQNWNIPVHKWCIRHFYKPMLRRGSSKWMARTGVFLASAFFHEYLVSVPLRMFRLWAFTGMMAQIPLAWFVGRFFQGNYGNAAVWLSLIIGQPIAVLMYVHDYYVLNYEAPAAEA
Experiment: In-vitro DGAT1 assay (hDGAT1 microsomes from Sf9 cells, 14C oleoyl CoA, triglyceride formation)
Type: biochemical
Conditions: At 1 μM

Illustrative cases are given below, each with its answer.
compound	inhibition at 1 µM
CC(C)[C@H](NC(=O)c1cc(-c2ccc(NC(=O)Nc3ccc(Cl)nc3)cc2)no1)C(=O)O [Example 207]	0 to 50%
C=C(NC(=O)c1cc(-c2ccc(NC(=O)Nc3ccccc3F)cc2)no1)C(=O)O [Example 302]	50 to 75%
Cc1cc(OC(F)(F)F)ccc1NC(=O)Nc1ccc(-c2cc(C(=O)NC(C(=O)O)C(C)C)on2)cc1 (stereo not drawn) [Example 295]	75 to 100%
COC(=O)[C@H](NC(=O)c1cc(-c2ccc(NS(=O)(=O)c3c(F)cccc3F)cc2)no1)C(C)C [Example 316]	0 to 50%
Cc1ccc(F)cc1NC(=O)Nc1ccc(-c2cc(C(=O)NC(C(=O)O)C(C)C)on2)cc1 (stereo not drawn) [Example 252]	75 to 100%
CC(C)[C@H](NC(=O)c1cc(-c2ccc(NC(=O)Nc3c(F)cccc3C(F)(F)F)cc2)no1)C(=O)O [Example 230]	0 to 50%
CC(C)C(NC(=O)c1cc(-c2ccc(NC(=O)Nc3ccc(F)c(Cl)c3)cc2)no1)C(=O)O (stereo not drawn) [Example 162]	75 to 100%
Cc1cccc(Cl)c1NC(=O)Nc1ccc(-c2cc(C(=O)N[C@H](C(=O)O)C(C)C)on2)cc1 [Example 175]	0 to 50%

INPUT: Lab request: please report inhibition at 1 µM under test system hDGAT1 (Homo sapiens) for Cc1ccc(NC(=O)Nc2ccc(-c3cc(C(=O)N[C@H](C(=O)O)C(C)C)on3)cc2)c(C)c1 [Example 171]
OUTPUT: 75 to 100%

INPUT: Give recorded inhibition at 1 µM with hDGAT1 (Homo sapiens) for the following compound: COC(=O)[C@H](NC(=O)c1cc(-c2ccc(NC(=O)Nc3ccccc3F)cc2)no1)C(C)C [Example 257]
OUTPUT: 0 to 50%

INPUT: Lab note: need inhibition at 1 µM with hDGAT1 (Homo sapiens) for entry CC(C)[C@@H](NC(=O)c1cc(-c2ccc(NS(=O)(=O)c3ccc(C(F)(F)F)cc3)cc2)no1)C(=O)O [Example 319] , please look it up.
OUTPUT: 0 to 50%

INPUT: Which measured inhibition at 1 µM belongs to CC(C)[C@H](NC(=O)c1cc(-c2ccc(NC(=O)Nc3ccc(F)cc3C(F)(F)F)cc2)no1)C(=O)O [Example 213] , tested on hDGAT1 (Homo sapiens)?
OUTPUT: 50 to 75%

INPUT: Notebook: pull reported inhibition at 1 µM for hDGAT1 (Homo sapiens), entry CC(C)C(NC(=O)c1cc(-c2ccc(NC(=O)C(=O)Nc3ccc(F)cc3F)cc2)no1)C(=O)O (stereo not drawn) [Example 339]
OUTPUT: 0 to 50%

INPUT: Can you look up inhibition at 1 µM on hDGAT1 (Homo sapiens) for CC(C)[C@@H](NC(=O)c1cc(-c2ccc(NC(=O)Nc3ccccc3Cl)cc2)no1)C(=O)O [Example 221] ?
OUTPUT: 75 to 100%

INPUT: Tell me reported inhibition at 1 µM for CC(C)[C@H](NC(=O)c1cc(-c2ccc(NC(=O)Nc3ccc(Oc4ccccc4)cc3)cc2)no1)C(=O)O [Example 240] , tested with hDGAT1 (Homo sapiens).
OUTPUT: 75 to 100%

###

target: hDGAT1 (Homo sapiens, UniProt O75907); construct: host or cells: Sf9 insect cells (baculovirus); microsomal preparation; assay: In-vitro DGAT1 assay (hDGAT1 microsomes from Sf9 cells, 14C oleoyl CoA, triglyceride formation); format: biochemical; details: At 1 μM
recorded.endpoint: inhibition at 1 µM

Some entries whose results are on file:
compound	recorded.endpoint	meas.value
COc1ccc(OC)c(NC(=O)Nc2ccc(-c3cc(C(=O)N[C@H](C(=O)O)C(C)C)on3)cc2)c1 [Example 166]	inhibition at 1 µM	50 to 75%
CC(C)[C@H](NC(=O)c1csc(-c2ccc(NC(=O)Nc3ccccc3Cl)cc2)n1)C(=O)O [Example 369]	inhibition at 1 µM	0 to 50%

INPUT: Kindly state the measured inhibition at 1 µM obtained for CC(C)C(NC(=O)c1cc(-c2ccc(OCc3ccccc3C(F)(F)F)cc2)no1)C(=O)O (stereo not drawn) [Example 330] with hDGAT1 (Homo sapiens, UniProt O75907).
OUTPUT: 0 to 50%

###

target: hDGAT1 (Homo sapiens); construct: host or cells: Sf9 insect cells (baculovirus); microsomal preparation; experiment: In-vitro DGAT1 assay (hDGAT1 microsomes from Sf9 cells, 14C oleoyl CoA, triglyceride formation); type: biochemical; conditions: At 10 μM
Consider the following compounds and their measured inhibition at 10 µM readings.

Use the examples below as a reference point.
compound	inhibition at 10 µM
COC(=O)[C@@H]1CCCN1C(=O)c1cc(-c2ccc(Nc3nc4ccc(F)cc4s3)cc2)no1	50 to 75%
CC(C)CC(NC(=O)c1cc(-c2ccc(NC(=O)Nc3ccc(F)cc3F)cc2)no1)C(=O)O (stereo not shown)	75 to 100%
Cc1ccc(NC(=O)Nc2ccc(F)cc2)cc1-c1cc(C(=O)NC(CC(C)C)C(=O)O)on1 (stereo not shown)	0 to 50%

INPUT: Which inhibition at 10 µM is reported for this compound? `CC(C)C[C@H](NC(=O)c1onc(-c2ccc(NC(=O)Nc3ccccc3)cc2)c1-c1ccccc1)C(=O)O`
OUTPUT: 0 to 50%

INPUT: So what's the measured inhibition at 10 µM for this one? `O=C(O)CNC(=O)c1cc(-c2ccc(Nc3nc4ccc(F)cc4s3)cc2)no1`
OUTPUT: 0 to 50%

INPUT: // lookup inhibition at 10 µM for `COC[C@H](NC(=O)c1cc(-c2cccc(Nc3nc4ccc(F)cc4s3)c2)no1)C(=O)OC`
OUTPUT: 0 to 50%

INPUT: Quick one: inhibition at 10 µM of `CC(C)[C@H](NC(=NO)c1cc(-c2cccc(Nc3nc4ccc(F)cc4s3)c2)no1)C(=O)O` ?
OUTPUT: 0 to 50%

INPUT: Dear colleague, I am looking for the recorded inhibition at 10 µM of the following compound: `COC(=O)[C@@H](NC(=O)c1onc(-c2ccc(NC(=O)Nc3ccccc3)cc2)c1-c1ccccc1)C(C)C`
OUTPUT: 0 to 50%

INPUT: Item `COC(=O)[C@H](CO)NC(=O)c1cc(-c2ccc(Nc3nc4ccc(F)cc4s3)cc2)no1` has what recorded inhibition at 10 µM?
OUTPUT: 0 to 50%

INPUT: Quick check: inhibition at 10 µM of `COC[C@H](NC(=S)c1cc(-c2ccc(Nc3nc4ccc(F)cc4s3)cc2)no1)C(=O)O` ?
OUTPUT: 50 to 75%

INPUT: Any idea what inhibition at 10 µM was measured for COC(=O)C(NC(=O)c1cc(-c2ccc(NC(=O)NCc3ccccc3)cc2)no1)C(C)C (stereo not shown) ?
OUTPUT: 0 to 50%

INPUT: Item `COC(=O)[C@@H](NC(=NO)c1cc(-c2ccc(Nc3nc4ccc(F)cc4s3)cc2)no1)C(C)C` has what recorded inhibition at 10 µM?
OUTPUT: 50 to 75%

INPUT: Reported inhibition at 10 µM for `COC[C@H](NC(=O)c1c(-c2ccc(Nc3nc4ccc(F)cc4s3)cc2)noc1-c1ccccc1)C(=O)OC` : what is it?
OUTPUT: 0 to 50%

INPUT: Return reported inhibition at 10 µM; argument: `CC(C)C[C@H](NC(=O)c1cc(-c2ccc(NC(=O)Nc3ccc(F)cc3)cc2)no1)C(=O)O`
OUTPUT: 75 to 100%

INPUT: Sample `CC(C)C[C@H](NC(=O)c1cc(-c2ccc(NC(=O)NC3CCCCC3)cc2)no1)C(=O)O` — what was its inhibition at 10 µM?
OUTPUT: 50 to 75%

INPUT: I have this compound here, COC(=O)C(NC(=O)c1cc(-c2ccc(NC(=O)Nc3ccc(F)cc3)cc2C)no1)C(C)C (stereo not shown) , and I need its recorded inhibition at 10 µM.
OUTPUT: 50 to 75%

INPUT: Bench note: what inhibition at 10 µM did `COC[C@H](NC(=NO)c1cc(-c2ccc(Nc3nc4ccc(F)cc4s3)cc2)no1)C(=O)O` show?
OUTPUT: 0 to 50%

INPUT: Returns the measured inhibition at 10 µM for the input compound. Input: `CC(C)C[C@H](NC(=NO)c1cc(-c2ccc(Nc3nc4ccc(F)cc4s3)cc2)no1)C(=O)O`
OUTPUT: 0 to 50%

INPUT: Could you tell me which inhibition at 10 µM is on file for `COC(=O)[C@H](CC(C)C)NC(=NO)c1cc(-c2ccc(Nc3nc4ccc(F)cc4s3)cc2)no1` ?
OUTPUT: 0 to 50%
